The following compounds are shown together with reported EC50 values.
Test system: M-07e cells
test.method.notes: M-07e cellular assay (SCF-mediated cell proliferation)
Format: cell-based
condition.info: Homo sapiens, 72 hours, CellTiter Glo
Protocol: M-07e cells (Creative Bioarray, CSC-C0249) which endogenously express human c-KIT were used to evaluate the effect of compounds on stem cell factor (SCF)-mediated cell proliferation. […] Twenty-four hours later, three-fold serially diluted test compounds in media containing SCF (at the previously determined EC90) were added to the plated M-07e cells and incubated for an additional 72 hours. […] The EC50 was determined using GraphPad Prism. […]

Use these answered entries as a reference point.
INSERT INTO results (molecule, metric, value_observed) VALUES
  ('Cc1ccc(-c2noc([C@H]3C[C@@H]3F)n2)cc1NC(=O)c1cnn2cc(-c3cn(C45CC(F)(C4)C5)nn3)ccc12', 'EC50', '< 100 nM'),
  ('CC(=O)N1CC(Oc2ccn3ncc(C(=O)Nc4cc(-c5noc([C@H]6C[C@@H]6F)n5)ccc4C)c3c2)C1', 'EC50', '100 to 1000 nM'),
  ('Cc1ccc(-c2noc([C@H]3C[C@@H]3F)n2)cc1NC(=O)c1cnn2ccc(-c3cnc(NC4CC4)nc3)cc12', 'EC50', '< 100 nM'),
  ('Cc1ccc(-c2ncc(OC(F)F)cn2)cc1NC(=O)c1cnn2ccc(N3CC4(COC4)C3)cc12', 'EC50', '< 100 nM'),
  ('Cc1ccc(-c2noc([C@H]3C[C@@H]3F)n2)cc1NC(=O)c1cnn2cc(-c3ccc(F)cc3)ccc12', 'EC50', '< 100 nM');

# lookup: EC50 of `Cc1ccc(-c2noc([C@H]3C[C@@H]3F)n2)cc1NC(=O)c1cnn2ccc(N3CCNC[C@H]3C)cc12`
100 to 1000 nM

# lookup: EC50 of `Cc1ccc(-c2noc([C@H]3C[C@@H]3F)n2)cc1NC(=O)c1cnn2ccc(-c3cc(C(F)(F)F)nn3C(C)C)cc12`
> 1000 nM

# lookup: EC50 of `Cc1ccc(-c2noc([C@H]3C[C@@H](OC(F)(F)F)C3)n2)cc1NC(=O)c1cnn2ccc(N3CC4(COC4)C3)cc12`
< 100 nM

# lookup: EC50 of `Cc1nnc(N2CC(c3nc(-c4cnc(C)c(NC(=O)c5cnn6ccc(N7CC8(COC8)C7)cc56)c4)no3)C2)o1`
> 1000 nM

# lookup: EC50 of `COC(=O)N1CCn2nc(-c3ccc(C)c(NC(=O)c4cnn5ccc(N6CC7(C6)CC(O)(C(F)F)C7)cc45)c3)nc2C1`
100 to 1000 nM

# lookup: EC50 of `Cc1ncc(-c2noc([C@H]3C[C@@H](C(F)(F)F)C3)n2)cc1NC(=O)c1cnn2ccc(N3CC4(C3)CC(O)(C(F)F)C4)cc12`
< 100 nM

# lookup: EC50 of `Cc1ncc(-c2noc([C@H]3C[C@@H]3F)n2)cc1NC(=O)c1cnn2ccc(N3CC4(COC4)C3)cc12`
100 to 1000 nM

# lookup: EC50 of `Cc1ccc(-c2noc([C@H]3C[C@@H]3F)n2)cc1NC(=O)c1cccnn1`
> 1000 nM

# lookup: EC50 of `Cc1ncc(-c2noc(C3CC(F)(F)C3)n2)cc1NC(=O)c1cnn2cc(-c3cn(C(F)F)nn3)ccc12`
100 to 1000 nM

The values you see were collected from patent US20250059174A1.
